target: adenosine A2A receptor (Homo sapiens, UniProt P29274); assay: Binding to the adenosine A2A receptor: displacement of radioligand [3H]-ZM241385 from membrane protein; settings: compound 10^-4 M; 1 nM [3H]-ZM241385; membrane protein 60 μg/tube; 37° C., 30 minutes; average of triple tubes; read-out: Adenosine A2A receptor inhibition rate
Sequence (P29274 whole entry): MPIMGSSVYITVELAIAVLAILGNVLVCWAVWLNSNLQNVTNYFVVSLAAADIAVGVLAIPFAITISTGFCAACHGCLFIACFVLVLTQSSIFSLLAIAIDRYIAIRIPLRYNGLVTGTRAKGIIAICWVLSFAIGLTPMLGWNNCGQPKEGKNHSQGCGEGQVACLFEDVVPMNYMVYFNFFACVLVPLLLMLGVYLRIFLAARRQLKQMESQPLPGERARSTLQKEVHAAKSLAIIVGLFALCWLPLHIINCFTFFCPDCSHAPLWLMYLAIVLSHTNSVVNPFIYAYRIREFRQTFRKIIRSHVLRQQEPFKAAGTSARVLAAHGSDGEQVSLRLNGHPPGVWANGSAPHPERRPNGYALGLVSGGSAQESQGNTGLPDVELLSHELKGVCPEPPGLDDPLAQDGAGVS
assayEndpoint: inhibition at 100 µM (%)

> print(dat)
                                   molecule                                  testedon         assayendpoint  unitslabel  result
1  CC(NC(=O)c1cn2c(nc3ccccc32)c(N)n1)c1cccc2cccnc12 (centres unmarked) [Compound 14v]  adenosine A2A receptor (Homo sapiens, UniProt P29274)  inhibition at 100 µM           %    61.6
2  CCCCCNC(=O)c1cn2c(nc3ccccc32)c(N)n1 [Compound 14b]  adenosine A2A receptor (Homo sapiens, UniProt P29274)  inhibition at 100 µM           %      71
3  CC(NC(=O)c1cn2c(nc3ccccc32)c(N)n1)c1ccccn1 (centres unmarked) [Compound 14u]  adenosine A2A receptor (Homo sapiens, UniProt P29274)  inhibition at 100 µM           %    86.5
4  CC(C)(NC(=O)c1cn2c(nc3ccccc32)c(N)n1)c1ccccn1 [Compound 14x]  adenosine A2A receptor (Homo sapiens, UniProt P29274)  inhibition at 100 µM           %    75.3
5  Nc1nc(C(=O)NCCO)cn2c1nc1ccccc12 [Compound 14f]  adenosine A2A receptor (Homo sapiens, UniProt P29274)  inhibition at 100 µM           %    65.6
